B1: TPR 5TU (parent)
chain: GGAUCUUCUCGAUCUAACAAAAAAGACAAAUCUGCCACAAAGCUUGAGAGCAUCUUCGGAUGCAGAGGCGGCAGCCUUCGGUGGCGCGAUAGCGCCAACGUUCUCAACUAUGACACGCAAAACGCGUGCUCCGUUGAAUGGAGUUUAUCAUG

# Variants of: B1
# Experimental details: polymerase ribozyme fitness, log enrichment relative to wild type (log ratio); higher = more active; in vitro selection for triplet polymerase activity
This sample holds only a part of the variants without activity.
# maps each entry to its polymerase ribozyme fitness (log ratio)
Just the number, please, no unit after it.

C87U C116G G152U : -3.11

Exam item: Need polymerase ribozyme fitness (log ratio) of C87U A89C U139G , thanks.
Marked response: -2.56

Exam item: Which polymerase ribozyme fitness (log ratio) value belongs to A97U C132A ?
Marked response: -2.65

Exam item: # polymerase ribozyme fitness (log ratio) lookup, item C57G G58U C93A
Marked response: -1.39
